Measured Target: Alpha-1D adrenergic receptor (Homo sapiens, UniProt P25100)
Sequence (P25100 whole entry): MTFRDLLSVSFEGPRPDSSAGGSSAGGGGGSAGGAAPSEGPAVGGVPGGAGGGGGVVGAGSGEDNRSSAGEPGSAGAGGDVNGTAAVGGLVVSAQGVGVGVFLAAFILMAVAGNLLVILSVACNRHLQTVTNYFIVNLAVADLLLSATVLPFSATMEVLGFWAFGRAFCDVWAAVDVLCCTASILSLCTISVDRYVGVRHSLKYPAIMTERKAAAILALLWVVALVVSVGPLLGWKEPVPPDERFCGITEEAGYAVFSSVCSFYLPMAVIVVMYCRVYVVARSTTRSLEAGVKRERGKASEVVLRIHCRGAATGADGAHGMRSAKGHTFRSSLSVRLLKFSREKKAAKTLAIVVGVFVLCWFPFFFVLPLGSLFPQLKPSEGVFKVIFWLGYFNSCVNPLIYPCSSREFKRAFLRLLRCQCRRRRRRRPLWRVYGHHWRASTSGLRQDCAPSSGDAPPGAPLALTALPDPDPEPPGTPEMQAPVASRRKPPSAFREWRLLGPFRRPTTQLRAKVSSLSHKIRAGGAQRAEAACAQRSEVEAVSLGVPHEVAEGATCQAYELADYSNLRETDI
Run Description: In vitro antagonism at Alpha-1D adrenergic receptor
Listing of entries alongside the reported Ki.

Here are 3 compounds together with their reported answers.
Ki on Alpha-1D adrenergic receptor (Homo sapiens, UniProt P25100) for CC1=C(C(=O)NCCCN2CCC(c3ccccc3C#N)CC2)[C@@H](c2ccc(F)c(F)c2)CC(=O)N1 is 330 nM

Entry CC1=C(C(=O)NCCCN2CCC(C#N)(c3ccc(F)cc3C#N)CC2)[C@@H](c2ccc(F)c(F)c2)CC(=O)N1 under Alpha-1D adrenergic receptor (Homo sapiens, UniProt P25100) had Ki of > 5000 nM

Readout Ki for CC1=C(C(=O)NCCCN2CCC(C#N)(c3ccc(F)cc3)CC2)[C@@H](c2ccc(F)c(F)c2)CC(=O)N1 , test system Alpha-1D adrenergic receptor (Homo sapiens, UniProt P25100), was 1050 nM

Please examine the following record next.
Tested system Alpha-1D adrenergic receptor (Homo sapiens, UniProt P25100); Ki recorded for CC1=C(C(=O)NCCCN2CCC(C#N)(c3ccccn3)CC2)[C@@H](c2ccc(F)c(F)c2)CC(=O)N1C was > 5000 nM
